- System: test plant species
- measurementDescription: Post-emergent herbicidal activity test (greenhouse, foliar spray, visual growth reduction)
- Format: in vivo
- conditionSet: post-emergence, 336 h, redroot pigweed (Amaranthus retroflexus), 14 Days After Application, 140 g ai/ha, read-out: Visual Growth Reduction (%) AMARE
experimentalReadout: pest or weed control at 140 g/ha

// solved cases for pest or weed control at 140 g/ha follow
> print(dat)
                                   compound     result
1  COC(=O)c1nc(-c2ccc(O)cc2Cl)ccc1Cl [F355]   0 to 29%
2  COC(=O)c1nc(-c2ccc(I)cc2F)c(F)cc1Cl [F328]  30 to 44%

Read off the recorded pest or weed control at 140 g/ha for COC(=O)c1nc(-c2ccc(C(F)(F)F)cc2Br)c(F)cc1F [F374]
95 to 100%

Read off the recorded pest or weed control at 140 g/ha for CCOc1c(Cl)ccc(-c2ccc(Cl)c(C(=O)OC)n2)c1Cl [F276]
0 to 29%

Read off the recorded pest or weed control at 140 g/ha for COc1cc(C(F)(F)F)ccc1-c1ncc(Cl)c(C(=O)O)n1 [F366]
75 to 84%

Read off the recorded pest or weed control at 140 g/ha for COC(=O)c1nc(-c2ccc3ccsc3c2F)c(F)cc1Cl [F266]
0 to 29%

---

- Test system: test plant species
- measurementDescription: Post-emergent herbicidal activity test (greenhouse, foliar spray, visual growth reduction)
- Format: in vivo
- conditionSet: post-emergence, 336 h, AMARE: redroot pigweed (Amaranthus retroflexus), 140 g ai/ha, 14 days after application, read-out: Visual Growth Reduction (%) 14 Days After Application, AMARE
experimentalReadout: pest or weed control at 140 g/ha

// solved cases for pest or weed control at 140 g/ha follow
> print(dat)
                                   molecule      result
1  COC(=O)c1nc(-c2ccc(C(F)(F)F)nc2)c(F)cc1Cl    0 to 29%
2  COC(=O)c1nc(-c2cc(Br)c(C(F)(F)F)cc2Cl)ccc1Cl  95 to 100%
3       O=C(O)c1nc(-c2ccc3occc3c2)c(F)cc1Cl    0 to 29%

Read off the recorded pest or weed control at 140 g/ha for `COC(=O)c1nc(-c2c(Cl)cc(C(F)(F)F)cc2S(C)(=O)=O)ccc1Cl`
85 to 94%

Read off the recorded pest or weed control at 140 g/ha for `O=C(O)c1nc(-c2cc3c(cc2Cl)OCO3)ccc1Cl`
75 to 84%

Read off the recorded pest or weed control at 140 g/ha for `COC(=O)c1nc(-c2ccc(C(F)(F)F)cc2Cl)cc(C)c1Cl`
0 to 29%

Read off the recorded pest or weed control at 140 g/ha for `O=C(O)c1nc(-c2cc3c(cc2Cl)OC(F)(F)O3)c(Cl)cc1Cl`
75 to 84%

Read off the recorded pest or weed control at 140 g/ha for `O=C(OCc1ccncc1)c1nc(-c2ccc(C(F)(F)F)cc2Cl)ccc1Cl`
95 to 100%

Read off the recorded pest or weed control at 140 g/ha for `COC(=O)c1nc(-c2ccc(C(F)(F)F)nc2)c(O)cc1Cl`
0 to 29%

Read off the recorded pest or weed control at 140 g/ha for `COC(=O)c1nc(-c2ccc(C(F)(F)F)nc2Cl)ccc1Cl`
95 to 100%

Read off the recorded pest or weed control at 140 g/ha for `O=C(O)c1nc(-c2ccc(C(F)(F)F)cc2)c(Cl)cc1Cl`
30 to 44%

Read off the recorded pest or weed control at 140 g/ha for `N#Cc1cc(C(F)(F)F)cc(Cl)c1-c1ccc(Cl)c(C(=O)O)n1`
95 to 100%

Read off the recorded pest or weed control at 140 g/ha for `COC(=O)c1nc(-c2ccc(C(F)(F)F)cc2Cl)ccc1Cl`
95 to 100%

Read off the recorded pest or weed control at 140 g/ha for `COC(=O)c1nc(-c2ccc(C(F)(F)F)cc2Cl)cc(OC)c1Cl`
0 to 29%

---

- Test system: test plant species
- measurementDescription: Post-emergent herbicidal activity test (greenhouse, foliar spray, visual growth reduction)
- Assay type: in vivo
- conditionSet: post-emergence, 336 h, canada thistle (Cirsium arvense), 14 Days After Application, 140 g ai/ha, read-out: Visual Growth Reduction (%) CIRAR
Here, each record is paired with measured pest or weed control at 140 g/ha data.

// solved cases for pest or weed control at 140 g/ha follow
> print(dat)
                                   compound              target               experimentalreadout      result
1  COC(=O)c1nc(-c2ccc(OC(F)F)cc2Cl)c(F)cc1Cl [F200]  test plant species  pest or weed control at 140 g/ha  95 to 100%
2  COC(=O)c1nc(-c2ccc(C(F)(F)F)c(Cl)c2)c(F)cc1Cl [F305]  test plant species  pest or weed control at 140 g/ha    0 to 29%
3  C=Cc1cc(-c2nc(C(=O)OC)c(Cl)cc2F)c(OC)c2c1OC(F)(F)O2 [F372]  test plant species  pest or weed control at 140 g/ha    0 to 29%
4  COc1c(-c2nc(C(=O)O)c(Cl)cc2F)ccc(C(F)F)c1F [F230]  test plant species  pest or weed control at 140 g/ha  95 to 100%
5  Cc1cc(-c2ccc(Cl)c(C(=O)O)n2)ccc1C(F)(F)F [F316]  test plant species  pest or weed control at 140 g/ha   30 to 44%

Read off the recorded pest or weed control at 140 g/ha for COC(=O)c1nc(-c2ccc(C(F)(F)F)c(C)c2)ccc1Cl [F308]
0 to 29%

Read off the recorded pest or weed control at 140 g/ha for COC(=O)c1nc(-c2ccc(OC(F)(F)F)cc2OC)c(F)cc1Cl [F215]
85 to 94%

Read off the recorded pest or weed control at 140 g/ha for COC(=O)c1nc(-c2ccc3ccsc3c2F)c(F)cc1Cl [F266]
0 to 29%

Read off the recorded pest or weed control at 140 g/ha for COC(=O)c1nc(-c2ccc(Cl)nc2Cl)ccc1Cl [F284]
30 to 44%

Read off the recorded pest or weed control at 140 g/ha for COC(=O)c1nc(-c2ccc(OS(C)(=O)=O)cc2F)c(F)cc1Cl [F343]
95 to 100%

Read off the recorded pest or weed control at 140 g/ha for COC(=O)c1nc(-c2cccc3c2OC(F)(F)O3)ccc1Cl [F242]
0 to 29%

Read off the recorded pest or weed control at 140 g/ha for COC(=O)c1nc(-c2cc(F)c(C(F)(F)F)cc2OC)ccc1Cl [F362]
0 to 29%

---

- System: test plant species
- measurementDescription: Post-emergent herbicidal activity test (greenhouse, foliar spray, visual growth reduction)
- Format: in vivo
- conditionSet: post-emergence, 336 h, lambsquarters (Chenopodium album), 14 Days After Application, 140 g ai/ha, read-out: Visual Growth Reduction (%) CHEAL
Here, each record is paired with measured pest or weed control at 140 g/ha data.

> print(dat)
                                    compound      result
 1  COC(=O)c1nc(-c2cc3c(cc2OC)OC(F)(F)O3)ccc1Cl [F353]   45 to 59%
 2  COC(=O)c1nc(-c2ccc3c(c2OC)OC(F)(F)O3)c(F)cc1Cl [F235]  95 to 100%
 3  COC(=O)c1nc(-c2ccc(C#N)cc2F)c(F)cc1Cl [F378]   75 to 84%
 4  COc1cc2c(cc1-c1nc(C(=O)O)c(Cl)cc1F)OC(F)(F)O2 [F344]   30 to 44%
 5  COC(=O)c1nc(-c2ccc(C(F)(F)F)nc2F)c(F)cc1Cl [F354]   75 to 84%
 6  COC(=O)c1nc(-c2ccc(C3(C#N)CC3)cc2Cl)c(Cl)cc1Cl [F238]  95 to 100%
 7  COC(=O)c1nc(-c2ccc(Cl)c(C)c2F)ccc1Cl [F272]    0 to 29%
 8  O=C(O)c1nc(-c2ccc(OC(F)(F)F)cc2Cl)ccc1Cl [F226]  95 to 100%
 9  COc1cc(C(F)(F)F)cc(Cl)c1-c1ccc(Cl)c(C(=O)O)n1 [F223]  95 to 100%
10  COC(=O)c1nc(-c2ccc(C(F)(F)F)c(Cl)c2)ccc1Cl [F304]    0 to 29%

Read off the recorded pest or weed control at 140 g/ha for COC(=O)c1nc(-c2ccc(C(F)(F)F)c(OC)c2)ccc1Cl [F296]
0 to 29%

Read off the recorded pest or weed control at 140 g/ha for O=C(O)c1nc(-c2nc(Cl)c(C(F)(F)F)cc2Cl)ccc1Cl [F225]
95 to 100%

Read off the recorded pest or weed control at 140 g/ha for COC(=O)c1nc(-c2ccc(SC)cc2)c(F)cc1Cl [F248]
0 to 29%

Read off the recorded pest or weed control at 140 g/ha for COC(=O)c1nc(-c2ccc(C(F)F)cc2)c(F)cc1Cl [F209]
85 to 94%

Read off the recorded pest or weed control at 140 g/ha for COC(=O)c1nc(-c2ccc(I)cc2F)c(F)cc1Cl [F328]
0 to 29%

Read off the recorded pest or weed control at 140 g/ha for COC(=O)c1nc(-c2cc(F)c(C(F)(F)F)cc2Cl)ccc1Cl [F243]
95 to 100%
